The origin of these recorded values is paper PMC4336329.

- Target: human ether-à-go-go-related gene (hERG) potassium channel (human)
- Run description: primary screen, population patch clamp on CHO cells stably expressing hERG; higher = less effect of the substance
- Method: Briefly, Chinese hamster ovary (CHO) cells stably expressing the hERG channel were dislodged from tissue culture flasks and dispensed into PPC plates. […] During the recording, background leak currents were estimated by a 100 ms step to -80 mV from an initial holding potential of -70 mV and subtracted from the subsequent current measurement. The campaign was conducted in two phases using slight differences in recording protocol. […]
Out of some 310,000 compounds screened, about 14,000 (4.5%) showed an effect of 50% or more. Effects have a minus sign here. The sample holds strong results, similar compounds and a random draw of the others, so the mix is not that of the screen.
Observation type: hERG current change (%, negative = inhibition) at 10uM
Respond with the figure and its unit, in that order.

Example entries begin here.
O=c1cc(-c2ccc(O)cc2)oc2cc(O)cc(O)c12 :: -2.23%
CCOC(=O)C1CCN(C(=O)C2CCN(c3nn4c(=O)cc(C)nc4s3)CC2)CC1 :: 3.2%
Cc1ccc(S(=O)(=O)N2CCN(C3CC(=O)N(CCc4ccccc4)C3=O)CC2)cc1C (stereo not shown) :: -27.7%
O=C(CCl)Nc1cccc(S(=O)(=O)NC2=NCCC2)c1 :: -0.632%

Data request, read-out hERG current change (%, negative = inhibition) at 10uM, for CCOc1ccc(N2CC(NC(=O)c3cccc4ccccc34)CC2=O)cc1 (stereo not shown)
3.75%

What about Cc1cc(SCC(=O)N2CCN(C(=O)c3ccco3)CC2)c(C)cc1Br ?
-62.3%

What about CCN1CCN(S(=O)(=O)c2ccc(Cl)c(C(=O)N(C)Cc3cccs3)c2)CC1 ?
-14.6%

* * *

- Target: human ether-à-go-go-related gene (hERG) potassium channel (human, UniProt Q12809)
- Sequence (Q12809 whole entry, looked up): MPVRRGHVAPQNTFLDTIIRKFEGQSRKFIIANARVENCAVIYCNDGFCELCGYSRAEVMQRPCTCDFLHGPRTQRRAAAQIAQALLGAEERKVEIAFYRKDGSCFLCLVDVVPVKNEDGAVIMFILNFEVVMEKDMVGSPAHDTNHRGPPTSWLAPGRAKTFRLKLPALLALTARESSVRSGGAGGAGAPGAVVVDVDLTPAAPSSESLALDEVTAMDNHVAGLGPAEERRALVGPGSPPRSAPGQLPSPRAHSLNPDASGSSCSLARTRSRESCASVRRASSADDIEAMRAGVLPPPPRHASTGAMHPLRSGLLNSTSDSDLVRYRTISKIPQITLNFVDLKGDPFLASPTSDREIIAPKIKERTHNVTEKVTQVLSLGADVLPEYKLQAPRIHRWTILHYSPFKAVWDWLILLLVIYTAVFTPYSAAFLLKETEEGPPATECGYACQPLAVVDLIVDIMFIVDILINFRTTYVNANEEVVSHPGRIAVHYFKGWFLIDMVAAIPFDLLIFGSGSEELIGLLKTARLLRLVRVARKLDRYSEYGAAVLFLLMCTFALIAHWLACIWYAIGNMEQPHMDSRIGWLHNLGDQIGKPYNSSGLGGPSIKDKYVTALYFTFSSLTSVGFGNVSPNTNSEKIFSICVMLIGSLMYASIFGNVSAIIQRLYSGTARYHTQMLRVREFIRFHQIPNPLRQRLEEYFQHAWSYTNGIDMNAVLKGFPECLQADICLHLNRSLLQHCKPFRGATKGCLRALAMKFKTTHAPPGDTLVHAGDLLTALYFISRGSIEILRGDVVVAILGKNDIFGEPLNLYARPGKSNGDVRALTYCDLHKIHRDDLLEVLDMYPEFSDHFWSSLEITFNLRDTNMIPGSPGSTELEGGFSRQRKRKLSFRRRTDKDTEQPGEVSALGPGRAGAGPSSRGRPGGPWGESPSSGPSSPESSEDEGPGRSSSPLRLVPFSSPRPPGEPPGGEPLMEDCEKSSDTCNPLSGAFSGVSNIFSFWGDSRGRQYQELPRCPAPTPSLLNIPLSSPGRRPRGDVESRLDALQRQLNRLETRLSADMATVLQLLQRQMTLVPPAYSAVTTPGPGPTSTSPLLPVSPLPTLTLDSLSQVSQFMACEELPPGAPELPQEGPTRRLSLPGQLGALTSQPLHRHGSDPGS
- Run description: primary screen, population patch clamp on CHO cells stably expressing hERG; higher = less effect of the substance
- Procedure: Briefly, Chinese hamster ovary (CHO) cells stably expressing the hERG channel were dislodged from tissue culture flasks and dispensed into PPC plates. […] During the recording, background leak currents were estimated by a 100 ms step to -80 mV from an initial holding potential of -70 mV and subtracted from the subsequent current measurement. The campaign was conducted in two phases using slight differences in recording protocol. […]
Hit rate of the full screen: of about 310,000 compounds, about 14,000 (4.5%) showed an effect of 50% or more. Effects have a minus sign here. For the sample, strong results were picked, then their nearest neighbours and some compounds at random.
# if value of hERG current change (%, negative = inhibition) at 10uM reaches -10%, tag yes (1); if it stays below, tag no (0)

Cc1ccccc1CCNC(=O)C1CCC(=O)N(Cc2ccc(Cl)cc2)C1 (stereo not drawn) :: no (0)

Evaluate COc1ccccc1CN1CC(C(=O)N2CCOCC2)CCC1=O (stereo not drawn) : hERG current change (%, negative = inhibition) at 10uM at minimum -10%?
no (0)

What about CNC(=O)CSCc1c(F)cccc1Cl ?
yes (1)

What about Cn1cnc(S(=O)(=O)Nc2ccccc2C(=O)NCC2CC2)c1 ?
yes (1)

What about O=C(NCCc1ccccc1Cl)C1CCC(=O)N(Cc2ccc(Cl)cc2)C1 (stereo not drawn) ?
no (0)

What about CN(CCNC(=O)C1CCC(=O)N(Cc2cccc(F)c2)C1)CCc1ccccc1 (stereo not drawn) ?
no (0)

What about Cc1ccc(NCC(O)C(O)C(O)CO)cc1C (stereo not drawn) ?
yes (1)

What about O=C1OC(=O)c2c(Br)c(Br)c(Br)c(Br)c21 ?
yes (1)

* * *

- Target: human ether-à-go-go-related gene (hERG) potassium channel (human, UniProt Q12809)
- Run description: primary screen, population patch clamp on CHO cells stably expressing hERG; higher = less effect of the substance
Among all 310,000 compounds or so, about 14,000 (4.5%) showed an effect of 50% or more. The effect is printed as a negative number. This is one part of a sample in which strong results are shown more often than they occur.
Observation type: hERG current change (%, negative = inhibition) at 10uM (%)
Numeric answer only, unit % assumed.

Example entries begin here.
O=C(CN1C(=O)c2ccccc2C1=O)Nc1ccccc1 :: -0.118
CCOc1ccc(CN2CCN(C(=O)c3cccc(F)c3)CC2)cc1.O=C(O)C(=O)O :: -62
Cc1ccc(C)c(NS(=O)(=O)c2ccc3c(c2)NC(=O)CCS3)c1 :: -15

Data request, read-out hERG current change (%, negative = inhibition) at 10uM, for O=C(CCc1nnc(-c2ccc3c(c2)OCO3)o1)N1CCC(c2ccc(F)cc2)C1 (stereo not shown)
-56

What about CCOC(=O)Cc1csc(NC(=O)c2ccc(S(=O)(=O)N3CCCCC3)cc2)n1 ?
-42.2

What about CCN1CCN(Cc2cccc(Oc3ccc(Cl)cc3)c2)CC1 ?
-56.9

What about O=C(Cc1ncc(C(F)(F)F)cc1Cl)NCc1cccnc1 ?
17.1

* * *

- Target: human ether-à-go-go-related gene (hERG) potassium channel (human, UniProt Q12809);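 further: peak tail current of the secondary pulse compared with the same well before compound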
- Run description: primary screen, population patch clamp on CHO cells stably expressing hERG; higher = less effect of the substance
Hit rate of the full screen: of about 310,000 compounds, about 14,000 (4.5%) showed an effect of 50% or more. Effects have a minus sign here. This excerpt belongs to a sample that is enriched for strong results.
# if value of hERG current change (%, negative = inhibition) at 10uM reaches -10%, tag criterion met; if it stays below, tag criterion not met

Worked examples follow.
CCOc1ccc(S(=O)(=O)N2CCN(S(=O)(=O)c3ccc(C(C)=O)cc3)CC2)cc1 :: criterion met
COc1cccc(NC(=O)CSc2nc(=O)n(CCN(C)C)c3c2CCCC3)c1 :: criterion not met
CSCC(=O)NC1CCCN(C2Cc3ccccc3C2)C1 (stereo not drawn) :: criterion met

Then this molecule:
Evaluate Cl.c1ccc(C(c2nnnn2Cc2ccco2)N2CCN(C3CCCC3)CC2)cc1 (stereo not drawn) : hERG current change (%, negative = inhibition) at 10uM at minimum -10%?
criterion not met

* * *

- Target: human ether-à-go-go-related gene (hERG) potassium channel (human, UniProt Q12809);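 further: peak tail current of the secondary pulse compared with the same well before compound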
- Run description: primary screen, population patch clamp on CHO cells stably expressing hERG; higher = less effect of the substance
Screen size: about 310,000 compounds; about 14,000 (4.5%) showed an effect of 50% or more. The effect is printed as a negative number. What follows is part of a selection rich in strong results, with near analogues and random picks from the rest.
Observation type: hERG current change (%, negative = inhibition) at 10uM (%)
Numeric answer only, unit % assumed.

O=S(=O)(NCC1CCCO1)c1cccc(S(=O)(=O)N2CCCC2)c1 (stereo not drawn) :: -14
Cn1c(SCC(=O)N2CCOCC2)nnc1-c1ccc2ncccc2c1 :: 15.4
c1ccc(-c2onc(-c3ccco3)c2-c2ccc3c(c2)OCO3)cc1 :: 2
Cc1n[nH]c(=O)nc1NCc1ccccc1Cl :: 3.23
COc1ccc(S(=O)(=O)N2CCOC2CNC(=O)C(=O)NCCCN2CCOCC2)cc1OC (stereo not drawn) :: 8.41

Turning to the following compound.
Return hERG current change (%, negative = inhibition) at 10uM measured with human ether-à-go-go-related gene (hERG) potassium channel (human, UniProt Q12809) given this compound: CCOc1ccc(CN2CCN(Cc3ccon3)CC2CCO)cc1 (stereo not drawn)
-62.8

* * *

- Target: human ether-à-go-go-related gene (hERG) potassium channel (human);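 further: peak tail current of the secondary pulse compared with the same well before compound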
- Run description: primary screen, population patch clamp on CHO cells stably expressing hERG; higher = less effect of the substance
Out of some 310,000 compounds screened, about 14,000 (4.5%) showed an effect of 50% or more. Effects have a minus sign here. The full list was thinned out, with strong results kept by preference.
Observation type: hERG current change (%, negative = inhibition) at 10uM
Respond with the figure and its unit, in that order.

Example entries begin here.
CCn1c(C)nc2cc(C(=O)OC)ccc21 :: 14.3%
COc1cccc(OC)c1C(=O)Nc1ccc(Cc2ccncc2)cc1 :: 8.86%

Data request, read-out hERG current change (%, negative = inhibition) at 10uM, for CCn1c(SCC(=O)Nc2ccc(NC(=O)c3ccco3)cc2)nnc1-c1cccs1
11.9%

What about C=C1CCC[C@]2(C)C[C@H]3OC(=O)C(CNC(C)CC)[C@H]3CC12 (stereo partly drawn) ?
0.523%

What about CCn1c(SCC(=O)Nc2cc(OC)c(OC)c(OC)c2)nnc1-c1cccs1 ?
-7.07%

What about O=C(Nc1nc2ccccc2s1)C1CCN(S(=O)(=O)c2cc([N+](=O)[O-])ccc2Cl)CC1 ?
10.4%

* * *

- Target: human ether-à-go-go-related gene (hERG) potassium channel (human, UniProt Q12809);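 further: peak tail current of the secondary pulse compared with the same well before compound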
- Run description: primary screen, population patch clamp on CHO cells stably expressing hERG; higher = less effect of the substance
Out of some 310,000 compounds screened, about 14,000 (4.5%) showed an effect of 50% or more. Effects have a minus sign here. The sample as a whole holds a higher share of strong results than the screen did.
Observation type: hERG current change (%, negative = inhibition) at 10uM (%)
Numeric answer only, unit % assumed.

O=C(/C=C/c1ccccc1[N+](=O)[O-])NCCCn1ccnc1 :: 2.43

Data request, read-out hERG current change (%, negative = inhibition) at 10uM, for O=C(c1ccccc1)c1ccc(-n2ccnc2)c([N+](=O)[O-])c1
-25.8

What about COC1CCN(C(=O)CC2C(=O)NCCN2CC2CCCCC2)CC1 (stereo not drawn) ?
13.3

What about CCN(CC)CCN(C(=O)c1ccc2c(c1)CCCC2)c1nc2ccc(F)cc2s1.Cl ?
-1.94

What about COc1ccc2cc(-c3ccccc3)ncc2c1 ?
5.65

What about CCn1cc(C(=O)NCCCOC)c(=O)c2cc(S(=O)(=O)N(C)C)ccc21 ?
14.3

What about COc1ccc(-c2ccc(OC)cc2)cc1 ?
7.51

What about CN(C)CCCN(C(=O)c1ccc2c(c1)CCCC2)c1nc2ccc(Cl)cc2s1.Cl ?
-43.8

What about NS(=O)(=O)c1ccc(NCCCn2ccnc2)c([N+](=O)[O-])c1 ?
8.43
